measurement_notes: Critical micelle concentration of compound by ITC method
Type: physicochemical
Where a SMILES comes first, the peptide text is derived from it. [ ]: non-standard residue; d: D form. The star is where a group is joined. ξ: configuration not given here. Myristoyl = CCCCCCCCCCCCCC(=O)*; Lauroyl = CCCCCCCCCCCC(=O)*; ξDab = NCCC(N)C(=O)O; ξDap = NCC(N)C(=O)O
readout_label: CMC (mM)

CCCCCCCCCCCC(=O)NCCC(NC(=O)CCCCCCCCCCC)C(=O)N[C@@H](CCCCN)C(=O)N[C@@H](CCCCN)C(=O)N[C@@H](CCCCN)C(N)=O (stereo partly specified) (Lauroyl-[ξDab](Lauroyl)KKK-NH2)
1.34

a. CCCCCCCCCCCC(=O)NCC(NC(=O)CCCCCCCCCCC)C(=O)N[C@@H](CCCCN)C(=O)N[C@@H](CCCCN)C(=O)N[C@@H](CCCCN)C(N)=O (stereo partly specified) (Lauroyl-[ξDap](Lauroyl)KKK-NH2)
b. CCCCCCCCCCCCCC(=O)NCC(NC(=O)CCCCCCCCCCCCC)C(=O)N[C@@H](CCCCN)C(=O)N[C@@H](CCCCN)C(=O)N[C@@H](CCCCN)C(N)=O (stereo partly specified) (Myristoyl-[ξDap](Myristoyl)KKK-NH2)
Enquiry: Identify the entry with the smaller CMC: a or b . Refer to your chosen entry by its label in the reply.
Return: b
(b: 0.35 mM, a: 1.53 mM)

* * *

measurement_notes: Surfactant-like property of compound at CMC
Format: physicochemical
Where a SMILES comes first, the peptide text is derived from it. [ ]: non-standard residue; d: D form. The star is where a group is joined. ξ: configuration not given here. Palmitoyl = CCCCCCCCCCCCCCCC(=O)*; Decanoyl = CCCCCCCCCC(=O)*; ξDab = NCCC(N)C(=O)O; ξDap = NCC(N)C(=O)O
readout_label: gammaCMC (mN/meter)

CCCCCCCCCCCCCCCC(=O)NCC(NC(=O)CCCCCCCCCCCCCCC)C(=O)N[C@@H](CCCCN)C(=O)N[C@@H](CCCCN)C(=O)N[C@@H](CCCCN)C(N)=O (stereo partly drawn) (Palmitoyl-[ξDap](Palmitoyl)KKK-NH2)
45.9
CCCCCCCCCCCCCCCC(=O)NCCC(NC(=O)CCCCCCCCCCCCCCC)C(=O)N[C@@H](CCCCN)C(=O)N[C@@H](CCCCN)C(=O)N[C@@H](CCCCN)C(N)=O (stereo partly drawn) (Palmitoyl-[ξDab](Palmitoyl)KKK-NH2)
41.5
CCCCCCCCCC(=O)NCCC(NC(=O)CCCCCCCCC)C(=O)N[C@@H](CCCCN)C(=O)N[C@@H](CCCCN)C(=O)N[C@@H](CCCCN)C(N)=O (stereo partly drawn) (Decanoyl-[ξDab](Decanoyl)KKK-NH2)
41.5

* * *

measurement_notes: Critical micelle concentration of compound
Type: physicochemical
Where a SMILES comes first, the peptide text is derived from it. [ ]: non-standard residue; d: D form. The star is where a group is joined. ξ: configuration not given here. Palmitoyl = CCCCCCCCCCCCCCCC(=O)*; Myristoyl = CCCCCCCCCCCCCC(=O)*; Lauroyl = CCCCCCCCCCCC(=O)*; Decanoyl = CCCCCCCCCC(=O)*; ξDab = NCCC(N)C(=O)O; ξDap = NCC(N)C(=O)O
readout_label: CMC (mM)

CCCCCCCCCCCCCC(=O)NCCC(NC(=O)CCCCCCCCCCCCC)C(=O)N[C@@H](CCCCN)C(=O)N[C@@H](CCCCN)C(=O)N[C@@H](CCCCN)C(N)=O (stereo partly drawn) (Myristoyl-[ξDab](Myristoyl)KKK-NH2)
0.45
CCCCCCCCCCCC(=O)NCCC(NC(=O)CCCCCCCCCCC)C(=O)N[C@@H](CCCCN)C(=O)N[C@@H](CCCCN)C(=O)N[C@@H](CCCCN)C(N)=O (stereo partly drawn) (Lauroyl-[ξDab](Lauroyl)KKK-NH2)
1.25
CCCCCCCCCCCCCC(=O)NCC(NC(=O)CCCCCCCCCCCCC)C(=O)N[C@@H](CCCCN)C(=O)N[C@@H](CCCCN)C(=O)N[C@@H](CCCCN)C(N)=O (stereo partly drawn) (Myristoyl-[ξDap](Myristoyl)KKK-NH2)
0.35
CCCCCCCCCCCCCCCC(=O)NCCC(NC(=O)CCCCCCCCCCCCCCC)C(=O)N[C@@H](CCCCN)C(=O)N[C@@H](CCCCN)C(=O)N[C@@H](CCCCN)C(N)=O (stereo partly drawn) (Palmitoyl-[ξDab](Palmitoyl)KKK-NH2)
0.32
CCCCCCCCCCCCCCCC(=O)NCC(NC(=O)CCCCCCCCCCCCCCC)C(=O)N[C@@H](CCCCN)C(=O)N[C@@H](CCCCN)C(=O)N[C@@H](CCCCN)C(N)=O (stereo partly drawn) (Palmitoyl-[ξDap](Palmitoyl)KKK-NH2)
0.32
CCCCCCCCCC(=O)NCC(NC(=O)CCCCCCCCC)C(=O)N[C@@H](CCCCN)C(=O)N[C@@H](CCCCN)C(=O)N[C@@H](CCCCN)C(N)=O (stereo partly drawn) (Decanoyl-[ξDap](Decanoyl)KKK-NH2)
3.24

1. CCCCCCCCCC(=O)NCCC(NC(=O)CCCCCCCCC)C(=O)N[C@@H](CCCCN)C(=O)N[C@@H](CCCCN)C(=O)N[C@@H](CCCCN)C(N)=O (stereo partly drawn) (Decanoyl-[ξDab](Decanoyl)KKK-NH2)
2. CCCCCCCCCCCC(=O)NCC(NC(=O)CCCCCCCCCCC)C(=O)N[C@@H](CCCCN)C(=O)N[C@@H](CCCCN)C(=O)N[C@@H](CCCCN)C(N)=O (stereo partly drawn) (Lauroyl-[ξDap](Lauroyl)KKK-NH2)
Enquiry: Which of the two gives a bigger number for CMC: 1 or 2 ? Lab log: write the label of the selected item as the result.
Return: 1
(1: 3.16 mM, 2: 1.41 mM)

* * *

Tested on: Staphylococcus epidermidis
measurement_notes: Antibacterial activity against Staphylococcus epidermidis PCM 2118 assessed as growth inhibition measured after 18 hrs by CLSI based method
Type: functional
condition_details: PCM 2118, 18 h
Where a SMILES comes first, the peptide text is derived from it. [ ]: non-standard residue; d: D form. The star is where a group is joined. ξ: configuration not given here. Palmitoyl = CCCCCCCCCCCCCCCC(=O)*; Decanoyl = CCCCCCCCCC(=O)*; ξDab = NCCC(N)C(=O)O; ξDap = NCC(N)C(=O)O
readout_label: MIC (µg/mL)

P. CCCCCCCCCC(=O)NCC(NC(=O)CCCCCCCCC)C(=O)N[C@@H](CCCCN)C(=O)N[C@@H](CCCCN)C(=O)N[C@@H](CCCCN)C(N)=O (stereo partly drawn) (Decanoyl-[ξDap](Decanoyl)KKK-NH2)
Q. CCCCCCCCCCCCCCCC(=O)NCC(NC(=O)CCCCCCCCCCCCCCC)C(=O)N[C@@H](CCCCN)C(=O)N[C@@H](CCCCN)C(=O)N[C@@H](CCCCN)C(N)=O (stereo partly drawn) (Palmitoyl-[ξDap](Palmitoyl)KKK-NH2)
R. CCCCCCCCCCCCCCCC(=O)NCCC(NC(=O)CCCCCCCCCCCCCCC)C(=O)N[C@@H](CCCCN)C(=O)N[C@@H](CCCCN)C(=O)N[C@@H](CCCCN)C(N)=O (stereo partly drawn) (Palmitoyl-[ξDab](Palmitoyl)KKK-NH2)
Enquiry: // rank the listed molecules by MIC, lowest value first Reply: labels, ordered per the request.
Return: P, R, Q
(P: 4 µg/mL, R: 256 µg/mL, Q: 512 µg/mL)

* * *

measurement_notes: Surfactant-like property of compound at CMC
Assay type: physicochemical
Where a SMILES comes first, the peptide text is derived from it. [ ]: non-standard residue; d: D form. The star is where a group is joined. ξ: configuration not given here. Myristoyl = CCCCCCCCCCCCCC(=O)*; Lauroyl = CCCCCCCCCCCC(=O)*; Decanoyl = CCCCCCCCCC(=O)*; ξDab = NCCC(N)C(=O)O; ξDap = NCC(N)C(=O)O
readout_label: gammaCMC (mN/meter)

CCCCCCCCCCCCCC(=O)NCC(NC(=O)CCCCCCCCCCCCC)C(=O)N[C@@H](CCCCN)C(=O)N[C@@H](CCCCN)C(=O)N[C@@H](CCCCN)C(N)=O (stereo not given in full) (Myristoyl-[ξDap](Myristoyl)KKK-NH2)
46.1
CCCCCCCCCCCCCC(=O)NCCC(NC(=O)CCCCCCCCCCCCC)C(=O)N[C@@H](CCCCN)C(=O)N[C@@H](CCCCN)C(=O)N[C@@H](CCCCN)C(N)=O (stereo not given in full) (Myristoyl-[ξDab](Myristoyl)KKK-NH2)
46.9
CCCCCCCCCC(=O)NCC(NC(=O)CCCCCCCCC)C(=O)N[C@@H](CCCCN)C(=O)N[C@@H](CCCCN)C(=O)N[C@@H](CCCCN)C(N)=O (stereo not given in full) (Decanoyl-[ξDap](Decanoyl)KKK-NH2)
42.5
CCCCCCCCCCCC(=O)NCCC(NC(=O)CCCCCCCCCCC)C(=O)N[C@@H](CCCCN)C(=O)N[C@@H](CCCCN)C(=O)N[C@@H](CCCCN)C(N)=O (stereo not given in full) (Lauroyl-[ξDab](Lauroyl)KKK-NH2)
40
CCCCCCCCCCCC(=O)NCC(NC(=O)CCCCCCCCCCC)C(=O)N[C@@H](CCCCN)C(=O)N[C@@H](CCCCN)C(=O)N[C@@H](CCCCN)C(N)=O (stereo not given in full) (Lauroyl-[ξDap](Lauroyl)KKK-NH2)
41.3
